Source listed as patent US20090143426A1.

melting point reference

molecule="CCOC(=O)c1cccc(Cc2c(C(=O)OCC)n(Cc3cc4c(cc3CC)OCO4)c3ccc(OC(C)C)cc3c2=O)c1 [Product 1d]" val="124 to 126 °C"
molecule="C=CCOc1ccc2c(c1)c(=O)c(Cc1cccc(C(=O)OCC)c1)c(C(=O)OCC)n2Cc1cc2c(cc1CC)OCO2 [Product 1e]" val="128 to 131 °C"
molecule="CCc1cc2c(cc1Cn1c(C(=O)O)c(Cc3cccc(C(=O)O)c3)c(=O)c3cc(O)ccc31)OCO2 [HJP272]" val="206 to 208 °C"
molecule="CCCOc1ccc2c(c1)c(=O)c(Cc1cccc(C(=O)O)c1)c(C(=O)O)n2Cc1cc2c(cc1CC)OCO2 [Product 1p]" val="162 to 163 °C"
molecule="CCOc1ccc2c(c1)c(=O)c(Cc1cccc(C(=O)O)c1)c(C(=O)O)n2Cc1cc2c(cc1CC)OCO2 [Product 1o]" val="213 to 215 °C"

Turning now to a further molecule:
Problem: Return melting point (reported value) for this molecule: CCc1cc2c(cc1Cn1c(C(=O)O)c(Cc3cccc(C(=O)O)c3)c(=O)c3cc(OCCCO)ccc31)OCO2 [Product 1y]
Solution: 192 to 194 °C
